Settings: 333.15 K, Pendant drop shape
Entries and their surface tension liquid-gas values follow.
The response must be a number in mN/m with no trailing unit.

# example entries with known answers
Q: // query surface tension liquid-gas value for entry CCCCn1cc[n+](C)c1.O=C([O-])CO [1-butyl-3-methylimidazolium glycolate]
A: 46.8

Q: Can you handle CCCCn1cc[n+](C)c1.NCC(=O)[O-] [1-butyl-3-methylimidazolium glycinate] next?
A: 48.4

Q: Now the same for CCCC[n+]1ccn(C)c1.O=C([O-])c1ccccc1 [3-butyl-1-methylimidazolium benzoate]
A: 38.3

Kindly consider the entry below.
Q: I would be grateful if you could share the reported surface tension liquid-gas for CC(O)C(=O)[O-].CCCCn1cc[n+](C)c1 [1-butyl-3-methylimidazolium lactate] .
A: 40.6

###

# maps each entry to its surface tension liquid-gas
Settings: 303.15 K, Pendant drop shape
Note: unit mN/m is implicit; provide only the numeric part.

Examples from the recorded data:
Q: Item CCCCn1cc[n+](C)c1.NCC(=O)[O-] [1-butyl-3-methylimidazolium glycinate] has what recorded surface tension liquid-gas?
A: 53.6

Q: Do the same for CCCC[n+]1ccn(C)c1.O=C([O-])c1ccccc1 [3-butyl-1-methylimidazolium benzoate] please
A: 39.7

Q: Try the compound CC(O)C(=O)[O-].CCCCn1cc[n+](C)c1 [1-butyl-3-methylimidazolium lactate]
A: 42.3

Please turn your attention to the following entry.
Q: Which value of surface tension liquid-gas has been reported for CCCCn1cc[n+](C)c1.O=C([O-])CO [1-butyl-3-methylimidazolium glycolate] in the records?
A: 49.2

###

Listed here: items and their measured mass density.
Settings: 343.15 K; 101.33 kPa; Liquid; Vibrating tube method
Output spec: scalar in kg/m3, unitless text.

Here are 3 compounds together with their reported answers.
Q: # mass density lookup, item CCCCn1cc[n+](C)c1.NCC(=O)[O-] [1-butyl-3-methylimidazolium glycinate]
A: 1100.5

Q: Also check CCCC[n+]1ccn(C)c1.O=C([O-])c1ccccc1 [3-butyl-1-methylimidazolium benzoate]
A: 1077.22

Q: How about this compound: CCCCn1cc[n+](C)c1.O=C([O-])CO [1-butyl-3-methylimidazolium glycolate]
A: 1097.73

Could you now consider this next compound?
Q: Entry CC(O)C(=O)[O-].CCCCn1cc[n+](C)c1 [1-butyl-3-methylimidazolium lactate] has what mass density?
A: 1069.75

###

Settings: 303.15 K; 101.33 kPa; Liquid; Vibrating tube method
assay.metric: mass density (kg/m3)
Number only, in kg/m3; omit the unit.

Q: What measured mass density goes with CC(O)C(=O)[O-].CCCCn1cc[n+](C)c1 [1-butyl-3-methylimidazolium lactate] ?
A: 1096.63

Q: Then CCCCn1cc[n+](C)c1.NCC(=O)[O-] [1-butyl-3-methylimidazolium glycinate] ?
A: 1125.91

Q: Same for CCCCn1cc[n+](C)c1.O=C([O-])CO [1-butyl-3-methylimidazolium glycolate]
A: 1125.95

Consider now this further compound.
Q: Record request: mass density value, item CCCC[n+]1ccn(C)c1.O=C([O-])c1ccccc1 [3-butyl-1-methylimidazolium benzoate]
A: 1102.19

###

Conditions: 323.15 K; 101.33 kPa; Liquid; Vibrating tube method
Recorded measurements of mass density, one per entry
# unit: kg/m3 | format: bare number

The cases that follow already have their mass density on record.
Q: Fill blank: measured mass density of the compound CCCC[n+]1ccn(C)c1.O=C([O-])c1ccccc1 [3-butyl-1-methylimidazolium benzoate] is ____.
A: 1089.66

Q: Moving on to the next compound: CCCCn1cc[n+](C)c1.NCC(=O)[O-] [1-butyl-3-methylimidazolium glycinate]
A: 1112.78

Q: Also, CCCCn1cc[n+](C)c1.O=C([O-])CO [1-butyl-3-methylimidazolium glycolate] please.
A: 1111.78

Next:
Q: Look at this compound and give its reported mass density. CC(O)C(=O)[O-].CCCCn1cc[n+](C)c1 [1-butyl-3-methylimidazolium lactate]
A: 1083.17

###

Details: 298.15 K, Pendant drop shape
Numbers after ± are expanded uncertainties.
assay.metric: surface tension liquid-gas
Lab note: write values as number then unit, every time.

The following compounds have reported results that may help.
Q: State the recorded surface tension liquid-gas for this entry: CCCC[n+]1ccn(C)c1.O=C([O-])c1ccccc1 [3-butyl-1-methylimidazolium benzoate]
A: 40.1 ± 0.5 mN/m

Q: Note, next up: CCCCn1cc[n+](C)c1.O=C([O-])CO [1-butyl-3-methylimidazolium glycolate]
A: 49.7 ± 0.5 mN/m

Q: Same read-out for CC(O)C(=O)[O-].CCCCn1cc[n+](C)c1 [1-butyl-3-methylimidazolium lactate] ?
A: 42.7 ± 0.5 mN/m

Consider now this further compound.
Q: What does the record list as surface tension liquid-gas for CCCCn1cc[n+](C)c1.NCC(=O)[O-] [1-butyl-3-methylimidazolium glycinate] ?
A: 54.5 ± 0.6 mN/m

###

Conditions: 343.15 K, Pendant drop shape
Recorded surface tension liquid-gas values for a group of compounds are listed next.
Supply the numeric figure in mN/m, leaving out any unit text.

Q: // surface tension liquid-gas lookup, key: CC(O)C(=O)[O-].CCCCn1cc[n+](C)c1 [1-butyl-3-methylimidazolium lactate]
A: 40

Q: Now consider CCCCn1cc[n+](C)c1.NCC(=O)[O-] [1-butyl-3-methylimidazolium glycinate] and answer again.
A: 46.8

Q: Another compound: CCCC[n+]1ccn(C)c1.O=C([O-])c1ccccc1 [3-butyl-1-methylimidazolium benzoate]
A: 37.8

Next:
Q: Query: surface tension liquid-gas; subject: CCCCn1cc[n+](C)c1.O=C([O-])CO [1-butyl-3-methylimidazolium glycolate]
A: 46.1

###

Details: 313.15 K, Pendant drop shape
assay.metric: surface tension liquid-gas (mN/m)
Note: unit mN/m is implicit; provide only the numeric part.

Consider the worked cases shown below.
Q: Which measured surface tension liquid-gas value corresponds to CCCC[n+]1ccn(C)c1.O=C([O-])c1ccccc1 [3-butyl-1-methylimidazolium benzoate] ?
A: 39.1

Q: Here is the next molecule: CCCCn1cc[n+](C)c1.O=C([O-])CO [1-butyl-3-methylimidazolium glycolate]
A: 48.4

Q: # repeat for CC(O)C(=O)[O-].CCCCn1cc[n+](C)c1 [1-butyl-3-methylimidazolium lactate]
A: 41.9

Next:
Q: So what does the record say about surface tension liquid-gas for CCCCn1cc[n+](C)c1.NCC(=O)[O-] [1-butyl-3-methylimidazolium glycinate] ?
A: 51.9

###

# maps each entry to its mass density
Conditions: 313.15 K; 101.33 kPa; Liquid; Vibrating tube method
State just the number; it will be interpreted in kg/m3.

Q: So what does the record say about mass density for CCCC[n+]1ccn(C)c1.O=C([O-])c1ccccc1 [3-butyl-1-methylimidazolium benzoate] ?
A: 1095.87

Q: Thanks! And CCCCn1cc[n+](C)c1.O=C([O-])CO [1-butyl-3-methylimidazolium glycolate] ?
A: 1118.97

Q: Ok, now CC(O)C(=O)[O-].CCCCn1cc[n+](C)c1 [1-butyl-3-methylimidazolium lactate]
A: 1089.79

Next:
Q: Quick check: mass density of CCCCn1cc[n+](C)c1.NCC(=O)[O-] [1-butyl-3-methylimidazolium glycinate] ?
A: 1119.35

###

Details: 298.15 K; 101.33 kPa; Liquid; Vibrating tube method
assay.metric: mass density (kg/m3)
Report as a plain number; the unit kg/m3 is understood.

Previously resolved entries follow.
Q: Query (compound): CC(O)C(=O)[O-].CCCCn1cc[n+](C)c1 [1-butyl-3-methylimidazolium lactate] ; field requested: mass density
A: 1100.2

Q: Same for CCCCn1cc[n+](C)c1.O=C([O-])CO [1-butyl-3-methylimidazolium glycolate]
A: 1129.32

Q: Here is the next compound: CCCC[n+]1ccn(C)c1.O=C([O-])c1ccccc1 [3-butyl-1-methylimidazolium benzoate]
A: 1105.25

Below: the item to evaluate.
Q: mass density lookup needed for CCCCn1cc[n+](C)c1.NCC(=O)[O-] [1-butyl-3-methylimidazolium glycinate] , thanks.
A: 1128.47

###

Details: 323.15 K, Pendant drop shape
Parameter: surface tension liquid-gas. Scope: all listed entries.
Express the result in mN/m but write the number alone.

Q: Given the entry CC(O)C(=O)[O-].CCCCn1cc[n+](C)c1 [1-butyl-3-methylimidazolium lactate] , report its measured surface tension liquid-gas.
A: 41.3

Q: How about CCCCn1cc[n+](C)c1.NCC(=O)[O-] [1-butyl-3-methylimidazolium glycinate] ?
A: 50.5

Q: Also check CCCC[n+]1ccn(C)c1.O=C([O-])c1ccccc1 [3-butyl-1-methylimidazolium benzoate]
A: 38.7

Q: Would you kindly repeat that for CCCCn1cc[n+](C)c1.O=C([O-])CO [1-butyl-3-methylimidazolium glycolate] ?
A: 47.6

Attribution: the NIST ThermoML archive (doi:10.1021/je4004299)
